Read-out: E-selectin (Homo sapiens) (UniProt P16581)
Sequence (P16581 whole entry, looked up): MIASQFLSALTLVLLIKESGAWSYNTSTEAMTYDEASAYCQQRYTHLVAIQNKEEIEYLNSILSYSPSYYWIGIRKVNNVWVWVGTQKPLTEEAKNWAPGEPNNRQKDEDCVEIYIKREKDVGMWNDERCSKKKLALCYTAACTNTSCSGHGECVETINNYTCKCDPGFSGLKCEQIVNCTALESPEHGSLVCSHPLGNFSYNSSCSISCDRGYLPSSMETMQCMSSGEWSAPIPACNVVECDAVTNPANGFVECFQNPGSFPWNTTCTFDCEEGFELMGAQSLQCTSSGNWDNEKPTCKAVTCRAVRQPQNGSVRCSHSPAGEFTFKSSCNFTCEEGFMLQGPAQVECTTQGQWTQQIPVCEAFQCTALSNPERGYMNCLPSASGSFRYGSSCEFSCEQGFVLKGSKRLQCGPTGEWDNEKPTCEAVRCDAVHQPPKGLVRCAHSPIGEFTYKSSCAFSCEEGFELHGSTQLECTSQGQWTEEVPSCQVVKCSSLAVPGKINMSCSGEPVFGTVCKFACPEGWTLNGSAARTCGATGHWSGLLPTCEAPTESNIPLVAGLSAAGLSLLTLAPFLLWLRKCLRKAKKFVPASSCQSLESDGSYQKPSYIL
Experiment: BSK_LPS_Eselectin: BioMAP Diversity Plus: LPS Assay for Eselectin Biomarker Activity (AID 2283077)
Conditions: primary human HUVEC with PBMC; actives raise or lower the signal
Method: BSK_LPS is a cell-based, multiplexed-readout assay that uses umbilical vein endothelium and peripheral blood mononuclear cells, a human vascular primary cell co-culture, with measurements taken at 24 hours after chemical dosing in a 96-well plate.BSK_LPS_Eselectin is an assay component measured in the BSK_LPS assay. It measures E-selectin antibody related to regulation of gene expression using ELISA technology.Data from the assay component BSK_LPS_Eselectin was analyzed into 1 assay endpoint. […]
Activity calls are given as the source filed them. The calls were made as follows: active = hit-call score of the fitted dose curve at least 0.9, where 1 is the maximum; inactive = score below 0.9.
Answer with one of the outcomes active, inactive

Solved entries:
- compound: "O=C(O)c1ccccc1C(c1ccc(O)cc1)c1ccc(O)cc1"
  label_value: "inactive"
- compound: "CC(C)(C)c1ccc(O)c(C(C)(C)C)c1"
  label_value: "active"
- compound: "CCc1ccc(CCOc2ccc(CC3SC(=O)NC3=O)cc2)nc1 (centres undefined)"
  label_value: "inactive"
- compound: "ClC1=C(Cl)C(Cl)(Cl)C(Cl)=C1Cl"
  label_value: "active"
- compound: "CCCCCCCCCCCCN1CCCC1=O"
  label_value: "active"
- compound: "CC(C)CCCCCCOC(=O)CCCCC(=O)OCCCCCCC(C)C"
  label_value: "inactive"
- compound: "CCc1nn(C2CCCCC2)c2cc(C3(C#N)CCC(C(=O)O)CC3)ccc12 (centres undefined)"
  label_value: "active"
- compound: "CCN(CC)CCNc1ccc(CNC=O)c2sc3ccc(OC)cc3c(=O)c12"
  label_value: "active"
- compound: "N#C[C@@H]1CC(F)(F)CN1C(=O)CNC1CC2CCC(C1)N2c1ncccn1 (some centres undefined)"
  label_value: "inactive"
- compound: "OCCC(F)(F)C(F)(F)C(F)(F)C(F)(F)C(F)(F)C(F)(F)F"
  label_value: "inactive"

Field: outcome | Entry: `CCCCCCCC(=O)O`
inactive

Field: outcome | Entry: `CCCCCCCCCCCCCCCS(=O)(=O)Oc1ccccc1`
inactive

Field: outcome | Entry: `C#C[C@]1(O)CC[C@H]2[C@@H]3CCC4=CC(=O)CC[C@@H]4[C@H]3CC[C@@]21C`
active

Field: outcome | Entry: `CN(C)C=O`
inactive

----------
Assay: BSK_hDFCGF_SRB: Viability Assessment in the BioMAP Diversity Plus: hDFCGF Assay (AID 2283061);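 also: cells exposed to compound for 24 h before the read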
Details: primary human foreskin fibroblasts
Calls of active or inactive are those of the source. How the source made its calls: active means hit-call score of the fitted dose curve at least 0.9, where 1 is the maximum; inactive means score below 0.9.
Answer with one of the outcomes active, inactive

Solved entries:
- molecule: "CC(=O)CC(C)(C)O"
  label_value: "inactive"
- molecule: "COC(=O)CCCCC(=O)OC"
  label_value: "inactive"
- molecule: "CC(O)CO (centres undefined)"
  label_value: "inactive"

Field: outcome | Entry: CCc1ccc(CCOc2ccc(CC3SC(=O)NC3=O)cc2)nc1 (centres undefined)
inactive

Field: outcome | Entry: `CCCOc1sc(C(=O)N2CCC(c3cc(CN)ccc3F)CC2)c(C)c1Br`
active

Field: outcome | Entry: `ClC1=C(Cl)C(Cl)(Cl)C(Cl)=C1Cl`
active

----------
Read-out: Apolipoprotein A-V (APOA5) gene, APOA5 (gene 116519)
Experiment: LTEA_HepaRG_APOA5: Life Technologies and Expression Analysis (LTEA) Assay for Apolipoprotein A-V (APOA5) gene using HepaRG (AID 2283474)
Details: mRNA level, 48 h; actives raise or lower the signal
Calls of active or inactive are those of the source. How the source made its calls: active means hit-call score of the fitted dose curve at least 0.9, where 1 is the maximum; inactive means score below 0.9.
property_measured: AC50

Here are 4 compounds together with their reported answers.
- compound: "CCCCCCCCCCCCCCCS(=O)(=O)Oc1ccccc1"
  AC50: "inactive"
- compound: "CC1=C(/C=C/C(C)=C/C=C/C(C)=C/C(=O)O)C(C)(C)CCC1"
  AC50: "inactive"
- compound: "CCCOC(=O)c1ccc(O)cc1"
  AC50: "inactive"
- compound: "c1ccc2c(c1)Cc1ccccc1-2"
  AC50: "inactive"

Go through the list and state AC50 for each entry.
1. CC#C[C@]1(O)CC[C@H]2[C@@H]3CCC4=CC(=O)CCC4=C3[C@@H](c3ccc(N(C)C)cc3)C[C@@]21C
2. CCc1nn(C2CCCCC2)c2cc(C3(C#N)CCC(C(=O)O)CC3)ccc12 (stereo not drawn)
3. CCCCCCCC(=O)O
4. Cc1cc(C)c(O)c(C)c1

29.7 µM (active)
77.4 µM (active)
inactive
inactive
